Tested system: UniProt:Q9BY41
Test: In vitro enzyme inhibition assay - HDAC (HDAC-Glo I/II), HDAC8
Format: biochemical
Experimental setup: read-out: HDAC IC50 (nM) HDAC 8
Counter-ions that a name gives are not always drawn.

Compound	Tested system	Measurement unit	IC50
CC(C)(O)COc1ccc(-c2cnc(N3CCC(NCc4ccc(OCC(=O)NO)cc4)CC3)c(C#N)c2-c2ccc(C#N)c(F)c2)cc1O [Example 192, formate]	UniProt:Q9BY41	nM	64.9
COc1ccc(-c2cnc(N3CCC(NCc4ccc(/C=C/C(=O)NO)cc4OC)CC3)c(C#N)c2-c2ccc(C#N)c(F)c2)cc1O [Example 132, formate]	UniProt:Q9BY41	nM	171
CNC1CCN(c2ncc(-c3ccc(NCc4ccc(C(=O)NO)cc4)c(O)c3)c(-c3ccc(C#N)c(F)c3)c2C#N)CC1 [Example 39, hydrochloride]	UniProt:Q9BY41	nM	207
Cc1ccc(-c2c(-c3ccc(C#N)c(F)c3)nc(N3CCC(NC(=O)CCCCCCC(=O)NO)CC3)n3ccnc23)cc1O [Example 56, hydrochloride]	UniProt:Q9BY41	nM	893
COc1ccc(-c2cnc(N3CCC(C)(NCc4ccc(/C=C/C(=O)NO)cc4)CC3)c(C#N)c2-c2ccc(C#N)c(F)c2)cc1O [Example 44, formate]	UniProt:Q9BY41	nM	188
COc1ccc(-c2cnc(N3CCC(NCc4ccc(/C=C/C(=O)NO)cn4)CC3)c(C#N)c2-c2ccc(C#N)c(F)c2)cc1O	UniProt:Q9BY41	nM	70.1
COc1ccc(-c2cnc(N3CCC(NCc4ccc(/C=C/C(=O)NO)c(C#N)c4)CC3)c(C#N)c2-c2ccc(C#N)c(F)c2)cc1O	UniProt:Q9BY41	nM	209
COc1ccc(-c2cnc(N3CCC(NCc4ccc5cc(C(=O)NO)sc5c4)CC3)c(C#N)c2-c2ccc(C#N)c(F)c2)cc1O	UniProt:Q9BY41	nM	132
COc1ccc(-c2cnc(N3CCC(NCc4ccc(OCC(=O)NO)c(OC)c4)CC3)c(C#N)c2-c2ccc(C#N)c(F)c2)cc1O	UniProt:Q9BY41	nM	223
Cc1noc2cc(-c3c(-c4ccc(C#N)c(F)c4)nc(N4CCC(NCc5ccc(/C=C/C(=O)NO)cc5)CC4)n4ccnc34)c(F)cc12 [Example 36, formate]	UniProt:Q9BY41	nM	97.7
COc1ccc(-c2c(OC)cc(N3CCC(NCc4ccc(/C=C/C(=O)NO)cc4)CC3)nc2-c2ccc(C#N)c(F)c2)cc1O [Example 54, formate]	UniProt:Q9BY41	nM	125

* * *

Tested system: pan-HDAC
Test: In vitro enzyme inhibition assay - HDAC (HDAC-Glo I/II), pan-HDAC
Type: biochemical
Structures can show the parent of a compound that is named as a salt.

Compound	IC50 / nM
CNc1ccc(-c2cnc(N3CCC(NCc4cnc(/C=C/C(=O)NO)nc4)CC3)c(C#N)c2-c2ccc(C#N)c(F)c2)cc1O [Example 196, hydrochloride]	5.69
COc1ccc(-c2cnc(N3CCC4(CC3)CN(Cc3ccc(/C=C/C(=O)NO)cc3)C4)c(C#N)c2-c2ccc(C#N)c(F)c2)cc1O	61
COc1ccc(-c2cnc(N3CCC(NCc4ccc(/C=C/C(=O)NO)cc4)CC3)c(C#N)c2-c2cnc(C#N)nc2)cc1O	1.08
COc1ccc(-c2c(OCCCCCCC(=O)NO)cc(N3CCC(N)CC3)nc2-c2ccc(C#N)cc2)cc1O	7.31

* * *

Test system: NCI-H526 cells
Test: In vitro cell inhibition assay - NCI-H526 cell proliferation (CellTiter-Glo)
Assay type: cell-based
Experimental setup: Homo sapiens, NCI-H526, 120 h, H526 small cell lung cancer cell proliferation, 5 days
pIC50: −log10 of the molar value. Structures can show the parent of a compound that is named as a salt.
// label = Fulfilled if pIC50 is not less than 7, otherwise Not fulfilled

Compound	Tested system	Label
Cc1noc2cc(-c3c(-c4ccc(C#N)c(F)c4)nc(N4CCC(NCc5ccc(/C=C/C(=O)NO)cc5)CC4)n4ccnc34)c(F)cc12 [Example 36, formate]	NCI-H526 cells	Not fulfilled
N#Cc1ccc(-c2c(-c3ccc(O)c(O)c3)cnc(N3CCC(NCc4ccc(/C=C/C(=O)NO)cc4)CC3)c2C#N)cc1F [Example 137, hydrochloride]	NCI-H526 cells	Fulfilled
Cc1ccc(-c2cnc(N3CCC(NCc4cnc(/C=C/C(=O)NO)nc4)CC3)c(C#N)c2-c2ccc(C#N)c(F)c2)cc1O [Example 148, formate]	NCI-H526 cells	Fulfilled
COc1ccc(-c2cnc(N3CCC(NCc4ccc(/C=C/C(=O)NO)cc4)CC3)c(C#N)c2-c2ccc([N+](=O)[O-])cc2)cc1O [Example 150, formate]	NCI-H526 cells	Fulfilled
N#Cc1ccc(-c2c(-c3ccc4cn[nH]c4c3)cnc(N3CCC(NCc4cnc(/C=C/C(=O)NO)nc4)CC3)c2C#N)cc1F	NCI-H526 cells	Fulfilled

* * *

pIC50: −log10 of the molar value. Where a name gives a salt, the structure may show the parent alone.
Parameter pIC50, tested on LSD1 (Homo sapiens (Human), UniProt O60341), listed per item.

Molecule	pIC50
N#Cc1ccc(-c2nc(N3CCC(N)CC3)cc(OCCCCCCC(=O)NO)c2-c2ccc(OCCO)cc2)cc1F [Example 17, formate]	7.62
COc1ccc(-c2cnc(N3CCC(NCc4ccc(/C=C/C(=O)NO)cc4)CC3)c(C#N)c2-c2ccc([N+](=O)[O-])nc2)cc1O [Example 248, formate]	9.09
COc1ccc(-c2cnc(N3CCC(NCC4CCN(c5ccc(C(=O)NO)cc5)CC4)CC3)c(C#N)c2-c2ccc(C#N)c(F)c2)cc1O [Example 121]	9.46
N#Cc1ccc(-c2nc(N3CCC(N)CC3)n3ccnc3c2-c2ccc(OCc3ccc(/C=C/C(=O)NO)cc3)c(O)c2)cc1F [Example 23, hydrochloride]	9.64
COc1ccc(-c2cnc(N3CCC(N)(c4ccc(/C=C/C(=O)NO)cc4)CC3)c(C#N)c2-c2ccc(C#N)c(F)c2)cc1O [Example 85]	6.68
COc1ccc(-c2c(C#N)cc(N3CCC(NCc4ccc(/C=C/C(=O)NO)cc4)CC3)nc2-c2ccc(C#N)c(F)c2)cc1O [Example 176, formate]	9.16

* * *

Form field: IC50 (one value per entry).
Tested system: HDAC8 (Homo sapiens (Human), UniProt Q9BY41)
Sequence (Q9BY41 whole entry): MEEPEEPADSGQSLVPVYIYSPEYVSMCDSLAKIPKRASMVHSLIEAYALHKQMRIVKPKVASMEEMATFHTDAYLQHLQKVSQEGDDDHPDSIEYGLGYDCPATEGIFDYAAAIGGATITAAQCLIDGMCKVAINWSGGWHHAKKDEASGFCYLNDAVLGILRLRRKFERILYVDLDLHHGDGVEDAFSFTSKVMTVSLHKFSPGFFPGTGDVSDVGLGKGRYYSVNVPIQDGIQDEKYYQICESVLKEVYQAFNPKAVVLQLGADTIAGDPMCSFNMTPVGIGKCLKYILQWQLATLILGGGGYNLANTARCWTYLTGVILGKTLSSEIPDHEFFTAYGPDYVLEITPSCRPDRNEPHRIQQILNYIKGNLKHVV
Test: In vitro enzyme inhibition assay - HDAC (HDAC-Glo I/II), HDAC8
Type: biochemical
Experimental setup: read-out: HDAC IC50 (nM) HDAC 8
Where a name gives a salt, the structure may show the parent alone.
Measure name: IC50 (nM)

Compound	Endpoint result
N#Cc1ccc(-c2c(-c3ccc(O)c(O)c3)cnc(N3CCC(NCc4ccc(/C=C/C(=O)NO)cc4)CC3)c2C#N)cc1F [Example 137, hydrochloride]	107
CN(C)c1ccc(-c2cnc(N3CCC(NCc4ccc(/C=C/C(=O)NO)cc4)CC3)c(C#N)c2-c2ccc(C#N)c(F)c2)cc1O [Example 153, formate]	400
CC(C)(O)Cn1nnc2cc(-c3cnc(N4CCC(NCc5ccc(/C=C/C(=O)NO)cc5)CC4)c(C#N)c3-c3ccc(C#N)c(F)c3)ccc21 [Example 197, formate]	30.1
N#Cc1ccc(-c2c(-c3ccc(Br)c(O)c3)cnc(N3CCC(NCc4ccc(/C=C/C(=O)NO)cc4)CC3)c2C#N)cc1F [Example 127, formate]	423
COc1ccc(-c2cnc(N3CCC(NCc4ncc(/C=C/C(=O)NO)cn4)CC3)c(C#N)c2-c2ccc(C#N)c(F)c2)cc1O [Example 135, formate]	1010
COc1ccc(-c2cnc(N3CCC(NCc4ccc(/C=C/C(=O)NO)cc4Cl)CC3)c(C#N)c2-c2ccc(C#N)c(F)c2)cc1O	731

* * *

Tested system: HDAC8 (Homo sapiens (Human), UniProt Q9BY41)
Test: In vitro enzyme inhibition assay - HDAC (HDAC-Glo I/II), HDAC8
Format: biochemical
Experimental setup: read-out: HDAC IC50 (nM) HDAC 8
Structures can show the parent of a compound that is named as a salt.
Form field: IC50 (one value per entry).
Measure name: IC50 (nM)

Compound	Measure name	Measurement unit	Endpoint result
N#Cc1ccc(-c2c(-c3ccc(NC(=O)CCCCCCC(=O)NO)c(O)c3)cnc(N3CCC(N)CC3)c2C#N)cc1F [Example 58, hydrochloride]	IC50	nM	136
N#Cc1ccc(-c2cc(OCc3ccc(/C=C/C(=O)NO)cc3)cc(N3CCC(N)CC3)n2)cc1F [Example 69, formate]	IC50	nM	198
COc1ccc(-c2cnc(N3CCC(NCc4cnc(/C=C/C(=O)NO)s4)CC3)c(C#N)c2-c2ccc(C#N)c(F)c2)cc1O	IC50	nM	81.4

* * *

Form field: IC50 (one value per entry).
Tested on: NCI-H526 cells
Test: In vitro cell inhibition assay - NCI-H526 cell proliferation (CellTiter-Glo)
Assay type: cell-based
Experimental setup: Homo sapiens, NCI-H526, 120 h, H526 small cell lung cancer cell proliferation, 5 days
Where a name gives a salt, the structure may show the parent alone.

Compound	IC50, nM
Cc1c(N2CCC(NCc3ccc(/C=C/C(=O)NO)cc3)CC2)ncc(-c2ccc(OCC(C)(C)O)c(O)c2)c1-c1ccc(C#N)c(F)c1 [Example 207, hydrochloride]	26.6
O=C(CCCCCCC(=O)Nc1ccccc1)NO [SAHA, Vorinostat, reference compound]	397
COc1ccc(-c2cnc(N3CCC(NCc4ccc(/C=C/C(=O)NO)nc4)CC3)c(CC#N)c2-c2ccc(C#N)c(F)c2)cc1O [Example 217, formate]	20.9
COc1ccc(-c2cnc(N3CCC(NCc4ccc(/C=C/C(=O)NO)cc4F)CC3)c(C#N)c2-c2ccc(C#N)c(F)c2)cc1O [Example 154, hydrochloride]	21.7
COc1ccc(-c2cnc(N3CCC(NCc4ccc(CCC(=O)NO)cc4)CC3)c(C#N)c2-c2ccc(C#N)c(F)c2)cc1O	35.3
COc1ccc(-c2cnc(N3CCC(NCc4ccc(/C(C)=C/C(=O)NO)cc4)CC3)c(C#N)c2-c2ccc(C#N)c(F)c2)cc1O [Example 170, formate]	27.5
COc1ccc(-c2cnc(N3CCC(NCc4ccc(/C=C/C(=O)NO)c(F)c4)CC3)c(C#N)c2-c2ccc(C#N)nc2)cc1O [Example 258, formate]	2.09
COc1ccc(-c2cnc(N3CCC(NCc4ccc(/C=C/C(=O)NO)cc4)CC3)c(C#N)c2-c2ccc(C#N)nc2)cc1O	3.82
N#Cc1ccc(-c2c(-c3cccc(O)c3)cnc(N3CCC(NCc4ccc(/C=C/C(=O)NO)cc4)CC3)c2C#N)cc1F [Example 139, formate]	17.1
